System: DU-145 prostate
Test: NCI tumour cell line growth inhibition, 48 h
experimental_endpoint: TGI (µM)
Give just the number in µM; leave the unit off.

What value of measured TGI is listed for CC(=O)c1sc2c(c1OC(=O)c1ccccc1)c(=O)n(-c1ccccc1)c(=S)n2-c1ccccc1 ? 79

What value of measured TGI is listed for CN1CCN(C(=O)[C@@]2(C)CC[C@]3(C)CC[C@]4(C)C(=CC[C@@H]5[C@@]6(C)CC[C@H](OC(=O)c7cccnc7)C(C)(C)[C@@H]6CC[C@]54C)[C@@H]3C2)CC1 ? 3.51

###

Tested on: HS 578T breast
Test: NCI tumour cell line growth inhibition, 48 h
Consider the following compounds; for each one, report its TGI.
Give just the number in µM; leave the unit off.

What value of measured TGI is listed for Oc1c(Cl)c(Cl)c(O)c(-c2cnc(-c3ncc(-c4c(O)c(Cl)c(Cl)c(O)c4Cl)s3)s2)c1Cl ? 56.5

What value of measured TGI is listed for O=C(N/N=C\c1ccc(Cl)cc1)Nc1cccc2ccccc12 ? 12

###

Consider the following compounds; for each one, report its TGI.
Tested on: EKVX NSCLC
Assay: NCI tumour cell line growth inhibition, 48 h
Give just the number in µM; leave the unit off.

What value of measured TGI is listed for Cc1ccc(/C=C2\CCS(=O)(=O)c3ccccc3C2=O)cc1 ? 34.9

What value of measured TGI is listed for C[n+]1ccc2/c(=C\C#N)c3ccccc3n21 ? 85.2

What value of measured TGI is listed for O=c1[nH][nH]c(=O)c2c(O)c(-c3ccccc3)ncc12 ? 939

What value of measured TGI is listed for CCCCCCCCCCCCCC(=O)NO ? 54.1

What value of measured TGI is listed for O=C1C(c2ccccc2)=[N+]([O-])c2cc([N+](=O)[O-])ccc21 ? 34.5

What value of measured TGI is listed for CN(C)c1ccc2cc3c(cc2c1)Oc1ccccc1N3.[Cl][Zn][Cl] ? 28.5

What value of measured TGI is listed for CCOC1Oc2ccccc2C(=O)/C1=C\Nc1ccc(C(=O)O)c(O)c1 (configuration not stated) ? 96.1

What value of measured TGI is listed for CCc1nc(N)nc(N)c1-c1ccc(N(C)Cc2ccccc2)c([N+](=O)[O-])c1 ? 35

What value of measured TGI is listed for CCC/C=C/C=C\C(=O)O[C@@H]1[C@@H](C)[C@]2(O)[C@@H]3C=C(C)C(=O)[C@H]3CC(COC(C)=O)=C[C@H]2[C@@H]2C(C)(C)[C@]12OC(C)=O ? 105

###

Consider the following compounds; for each one, report its TGI.
Test system: TK-10 renal
Experiment: NCI tumour cell line growth inhibition, 48 h
Give just the number in µM; leave the unit off.

What value of measured TGI is listed for CCCCCCCCC1C(C)c2c([nH]c3ccccc23)C2C(=O)N(c3ccccc3)C(=O)C21 (stereo unspecified) ? 37.1

What value of measured TGI is listed for O=C(/C=C/c1ccc(Cl)cc1)c1nc2ccccc2[nH]1 ? 70.5

What value of measured TGI is listed for CC(=O)OC1(C)CC(C)C(=O)C(C(O)CC2CC(=O)NC(=O)C2)C1 (stereo unspecified) ? 0.164

What value of measured TGI is listed for NS(=O)(=O)c1ccc(-n2nc(-c3ccccc3)cc2-c2cc(O)ccc2O)cc1 ? 95.2

What value of measured TGI is listed for O=C(N/N=C\c1ccc(Cl)cc1)Nc1cccc2ccccc12 ? 17

What value of measured TGI is listed for O=C(CCN1CCCC1)Nc1ccc2c(Nc3ccc(Br)cc3)c3ccccc3nc2c1 ? 3.37

What value of measured TGI is listed for CCOC1Oc2ccccc2C(=O)/C1=C\Nc1ccc(C(=O)O)c(O)c1 (stereo unspecified) ? 61.3

What value of measured TGI is listed for CC(C)c1ccc(C(c2c(O)c3ccccc3oc2=O)c2c(O)c3ccccc3oc2=O)cc1 ? 68

What value of measured TGI is listed for O=C(/C=C/c1ccc(O)c(O)c1)c1ccc(O)cc1O ? 60.3

What value of measured TGI is listed for Cn1cc(-c2csc(-c3cn(CCCN4CCCCC4)c4ccc(Br)cc34)n2)c2cccnc21 ? 3.16

What value of measured TGI is listed for O=C(O)c1ccc(Nc2nc3ccc(C(F)(F)F)cc3nc2-c2ccccc2)cc1 ? 52.4

###

Tested on: UACC-257 melanoma
Assay: NCI tumour cell line growth inhibition, 48 h
experimental_endpoint: log10(TGI) (log10 of the value in µM)
Recorded TGI (log10, µM)

What value of measured log10(TGI) is listed for CC1=C(C(=O)Nc2ccccc2C)C(c2ccccc2O)C(C(=O)Nc2ccccc2C)=C(C)N1 ? 1.69

What value of measured log10(TGI) is listed for CCN(CC)CCNc1ccc(N=Nc2cnc3ccccc3c2)c2ccccc12 ? 0.54

What value of measured log10(TGI) is listed for N#Cc1ccc(O)c(C2=NCC(c3ccc(-c4ccccc4)cc3)O2)c1 (configuration not stated) ? 0.90

What value of measured log10(TGI) is listed for C=C(C)C1CC=C(C)C(O)([C@@]2(O)C[C@H](C(=C)C)CC=C2C)C1 (some centres not stated) ? 1.63

What value of measured log10(TGI) is listed for CC(/C=C1\CCC(CN(C)C)C1=O)c1cccc(Br)c1 (configuration not stated) ? 1.50

What value of measured log10(TGI) is listed for c1cc2cc(Cc3ccc4[nH]ccc4c3)ccc2[nH]1 ? 1.76

What value of measured log10(TGI) is listed for CN(C)c1ccc2cc3c(cc2c1)Oc1ccccc1N3.[Cl][Zn][Cl] ? 0.97

What value of measured log10(TGI) is listed for CCc1nc(N)nc(N)c1-c1ccc(N(C)Cc2ccccc2)c([N+](=O)[O-])c1 ? 1.15

What value of measured log10(TGI) is listed for O=C1NC(c2cccc3ccccc23)Nc2ccccc21 (configuration not stated) ? 1.51

###

Tested on: RXF 393 renal
Assay: NCI tumour cell line growth inhibition, 48 h; in the data active = GI50 below about 0.43 µM; inactive = the rest
// classify into active, inactive

Test call for this molecule, please: N#Cc1ccc(C(=O)c2cnn(-c3ccc(F)cc3)c2N)cc1 inactive

Test call for this molecule, please: COc1ccc(Cl)cc1Nc1nc(C(F)(F)F)ccc1C(=O)N/N=C/c1ccccc1Cl inactive

Test call for this molecule, please: CC[C@@]1(O)C(=O)OCc2c1cc1n(c2=O)Cc2cc3cccc(N)c3nc2-1 inactive

Test call for this molecule, please: O=C1/C=C/[C@@H](O)[C@@H]2C[C@@H](O)C[C@H]2/C=C/CCC[C@H](CCc2ccc(NC(=S)Nc3ccc4c(c3)C(=O)OC43c4ccc(O)cc4Oc4cc(O)ccc43)cc2)O1 active

###

Consider the following molecules; for each one, report its GI50.
Test system: PC-3 prostate
Assay: NCI tumour cell line growth inhibition, 48 h

What value of measured GI50 is listed for O=C1/C=C/[C@@H](O)[C@@H]2C[C@@H](O)C[C@H]2/C=C/CCC[C@H](CCc2ccc(NC(=S)Nc3ccc4c(c3)C(=O)OC43c4ccc(O)cc4Oc4cc(O)ccc43)cc2)O1 ? 516 nM

What value of measured GI50 is listed for O=C(C(=O)c1cccnc1)c1cccnc1 ? > 100000 nM

What value of measured GI50 is listed for CN(C)C[C@@H]1CCn2cc(c3ccccc32)C2=C(C(=O)NC2=O)c2cn(c3ccccc23)CCO1 ? 1770 nM

What value of measured GI50 is listed for Cn1cc(-c2csc(-c3cn(CCCN4CCCCC4)c4ccc(Br)cc34)n2)c2cccnc21 ? 1770 nM

###

Test system: HT29 colon
Test: NCI tumour cell line growth inhibition, 48 h; in the data active means GI50 below about 0.43 µM; inactive means the rest
// classify into true for active, false for inactive

Test call for this molecule, please: COc1ccc(Cl)cc1Nc1nc(C(F)(F)F)ccc1C(=O)N/N=C/c1ccccc1Cl false

Test call for this molecule, please: O=C(Nc1cccc(-n2ccc3c(NC(=O)c4ccccc4)nccc32)c1)c1ccc(Cl)c(Cl)c1 true

Test call for this molecule, please: CN(CCCCCCCCNc1ccnc2ccccc12)Cc1ccc(-c2ccc(-c3ccc(C#N)cc3)s2)cc1 true

Test call for this molecule, please: CCCCNP1(NCCCC)=NP(NCCCC)(NCCCC)=NP(NCCCC)(NCCCC)=NP(NCCCC)(NCCCC)=N1 true

Test call for this molecule, please: COc1ccc2c(c1)C(=O)/C(=C/c1cccc(OCC(=O)c3ccc([N+](=O)[O-])cc3)c1)CO2 false

Test call for this molecule, please: CN(C)c1ccc2cc3c(cc2c1)Oc1ccccc1N3.[Cl][Zn][Cl] false

Test call for this molecule, please: CCCCCCCCCCCCSC1=CC(=O)C=CC1=O false

Test call for this molecule, please: CN(C)c1ccc(/C=N/n2c(CCCCc3n[nH]c(=S)n3/N=C/c3ccc(N(C)C)cc3)n[nH]c2=S)cc1 false

Test call for this molecule, please: O=C(CS(=O)c1nc2ccccc2nc1-c1ccccc1)Nc1ccc(Cl)cc1 (centres undefined) false

###

Consider the following molecules; for each one, report its TGI.
System: PC-3 prostate
Assay: NCI tumour cell line growth inhibition, 48 h

What value of measured TGI is listed for O=C(CCN1CCCC1)Nc1ccc2c(Nc3ccc(Br)cc3)c3ccccc3nc2c1 ? 3.04 µM

What value of measured TGI is listed for CC[C@H](C)C(=O)O[C@H]1CCC=C2C=C[C@H](C)[C@H](CC[C@@H]3C[C@@H](O)CC(=O)O3)[C@H]21 ? > 100 µM

What value of measured TGI is listed for O=C(O)c1ccccc1/C=N\N(CCO)C1=NCCN1 ? > 100 µM
